assayed target: tubulin (Sus scrofa, UniProt P02550+P02554)
Construct: Tubulin is purified from pig brain according to published methods
Sequence (P02550 whole entry): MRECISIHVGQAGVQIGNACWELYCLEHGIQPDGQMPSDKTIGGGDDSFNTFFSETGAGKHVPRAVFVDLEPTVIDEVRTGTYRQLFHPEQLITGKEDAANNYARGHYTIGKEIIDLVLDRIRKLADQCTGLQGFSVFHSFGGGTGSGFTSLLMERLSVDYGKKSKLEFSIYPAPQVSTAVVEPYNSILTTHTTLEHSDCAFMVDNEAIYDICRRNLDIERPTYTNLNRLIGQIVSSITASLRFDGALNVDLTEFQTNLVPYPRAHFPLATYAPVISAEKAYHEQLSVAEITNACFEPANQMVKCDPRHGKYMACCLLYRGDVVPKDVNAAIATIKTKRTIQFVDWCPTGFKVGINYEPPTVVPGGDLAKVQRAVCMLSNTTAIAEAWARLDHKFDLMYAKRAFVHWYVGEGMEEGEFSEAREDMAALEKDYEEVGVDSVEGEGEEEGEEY
Sequence (P02554 whole entry): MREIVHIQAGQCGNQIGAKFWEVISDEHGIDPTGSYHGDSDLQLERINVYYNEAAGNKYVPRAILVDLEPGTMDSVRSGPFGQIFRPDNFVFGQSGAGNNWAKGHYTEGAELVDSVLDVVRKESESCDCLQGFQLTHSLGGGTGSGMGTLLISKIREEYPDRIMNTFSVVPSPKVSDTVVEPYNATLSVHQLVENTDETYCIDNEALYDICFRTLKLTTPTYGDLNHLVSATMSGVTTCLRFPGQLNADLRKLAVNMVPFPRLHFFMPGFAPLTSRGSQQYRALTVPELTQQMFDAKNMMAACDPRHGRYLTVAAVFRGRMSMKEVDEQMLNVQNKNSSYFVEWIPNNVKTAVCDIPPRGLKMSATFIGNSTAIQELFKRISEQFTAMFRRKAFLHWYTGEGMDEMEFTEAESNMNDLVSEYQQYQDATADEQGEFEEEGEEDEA
protocol notes: Evaluation of the inhibition of tubulin polymerization (turbidimetry)
condition: tubulin 10 μm (1 mg/ml), 37° C., turbidity at 350 nm; concentration that inhibits the rate of polymerization by 50%; read-out: Inhibition of tubulin polymerization IC 50 (μm)
pIC50: −log10 of the molar value.
test readout: pIC50

| cpd smiles | test readout | quantitative result |
| --- | --- | --- |
| COc1ccc(-n2nc(C)cc2C(=O)N2CCN(c3cccc(Cl)c3Cl)CC2)cc1 | pIC50 | 5.15 |
| Cc1cc(CN2CCN(c3cccc(Cl)c3)CC2)n(-c2ccccc2)n1 | pIC50 | 4.92 |
| COc1cccc(N2CCN(C(=O)c3cc(C)nn3-c3ccc(C)cc3)CC2)c1 | pIC50 | 5.30 |
| Cc1cc(C(=O)N2CCN(c3ccc(F)cc3)CC2)n(-c2cccc(F)c2)n1 | pIC50 | 4.90 |
| Cc1ccnc(N2CCN(C(=O)c3cc(C)nn3-c3ccccc3)CC2)c1 | pIC50 | 5.82 |
| CNC(=O)c1cccc(N2CCN(C(=O)c3cc(C)nn3-c3ccccc3)CC2)c1 | pIC50 | 5.68 |
| COc1ccccc1N1CCN(C(=O)c2cc(C)nn2-c2cccc(C)c2)CC1 | pIC50 | 5.52 |
| COc1cc(OC)cc(N2CCN(C(=O)c3cc(-c4ccsc4)nn3-c3ccccc3)CC2)c1 | pIC50 | 5.86 |
| Cc1cc(C(=O)N2CCN(c3ccc(F)cc3)CC2)n(-c2ccccc2)n1 | pIC50 | 5.19 |
